Target: Human immunodeficiency virus type 1 protease (Human immunodeficiency virus 1, UniProt Q72874, A71V/G73S/I84V/L10I/L63P/L90M)
Sequence (Q72874 entry or part of it A71V/G73S/I84V/L10I/L63P/L90M): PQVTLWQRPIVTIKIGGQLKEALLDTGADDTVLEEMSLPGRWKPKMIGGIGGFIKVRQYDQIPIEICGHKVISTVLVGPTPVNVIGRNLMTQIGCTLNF
Test: Inhibition of multidrug resistant HIV-1 protease L10I/L63P/A71V/G73S/I84V/L90M mutant using fluorogenic peptide substrate incubated for 30 mins prior to substrate addition measured after 10 mins by FRET assay
value-kind: Ki (µM)
One number for each entry, in µM.

Data point: O=C1c2cccc([N+](=O)[O-])c2C(=O)N1c1ccc2[nH]c(=S)sc2c1 ; Ki = 91
